target: T1, Recombinant human CD4 (R&D Systems, Cat. 10327-CD) (human, UniProt P01730 26-390, limits assumed); test: BLI (Octet Red 384), non-clonal supernatant captured on AMC sensors, 100 nM human CD4, 1:1 local fit;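 further: hybridoma antibodies from supernatants, one CD4 concentration giving single-point kinetics per supernatant, with curves fitted over both association and dissociation phases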
T1 construct: Bought protein; also called huCD4
observation-type: koff (s⁻¹)

[[record]]
binder = "75110_08H11A (antibody, V domains shown, Tested as non-clonal AlivaMab Mouse hybridoma supernatant (human variable regions and human kappa, mouse Fc); also called ADS75110 non-clonal supernatant 08H11A) VH: EVQLVESGGGLVQPGGSLRLSCAASGFTFSSYDMHWVRQATGKGLEWVSTIGTAGDTYYPGSVKGRFTISRENAKNSLYLQMNSLRAGDTAVYYCARGGYSYYGMDVWGQGTTVTVSS VL: EIVLTQSPGTLSLSPGERATLSCGASQSVSSTYLAWYQQKPGQAPRLLIYGASSRATGIPDRFSGSGSGTDFTLTISRLEPEDFAVYYCQQFGSSPFTFGPGTKVDIK"
quantitative_readout = 0.00065

[[record]]
binder = "75110_10K21A (antibody, V domains shown, Tested as non-clonal AlivaMab Mouse hybridoma supernatant (human variable regions and human kappa, mouse Fc); also called ADS75110 non-clonal supernatant 10K21A) VH: EVQLVESGGGLVQPGGSLRLSCAASGFTFSSYWMTWVRQAPGKGLEWVANIKQDGSEKYYVDSVKGRFTISRDNAKNSLYLQMNSLRAEDTAVYYCVRDRYDALDIWGQGTMVTVSS VL: AIQMTQSPSSLSASVGDRVTITCRASQGIRNDLNWYQQKPGKAPKLLIYAASSLQSGVPSRFSGSGSGTDFTLTISSLQAEDFATYYCLKDYNYPYTFGQGTKLEIK"
quantitative_readout = 0.000362

[[record]]
binder = "75110_01H18A (antibody, V domains shown, Tested as non-clonal AlivaMab Mouse hybridoma supernatant (human variable regions and human kappa, mouse Fc); also called ADS75110 non-clonal supernatant 01H18A) VH: QVQLQQWGAGLLKPSETLSLTCAVYGGSFSGYYWSWIRQSPGKGLEWIGEINQSGSTNYNPSLKSRVTISVDTSKNQFSLKLSSVTAADTAVYYCARVINWFDSWGQGTLVTVSS VL: DIQMTQSPSSVSASVGDRVTITCRASQGISSWLAWYQQKPGKAPKLLIYAASSFQSGVPSRFSGSGSGTDFTLTISSLQTEDFATYYCQQANSFPYTFGQGTRLEIK"
quantitative_readout = 0.000148

